parameter: melting point

Examples with their reported melting point follow.
* Cn1nccc1CO | 58 to 60 °C
* Cc1cccc(NS(=O)(=O)c2ccc(N)cc2)n1 | 223 to 225 °C
* O=C(CO)N1CCCc2ccccc21 | 80 to 82 °C
* O=C(O)c1coc(-c2ccccc2Cl)n1 | 179 to 181 °C
* CCNc1ccc(C#N)cn1 | 88 to 90 °C
* O=C(O)c1cccc(C(F)(F)C(F)(F)F)c1 | 94 to 96 °C

Need melting point, item "N#Cc1c(Cl)nsc1Cl"
64 to 66 °C

----------
parameter: melting point

Known results for molecules:
* O=Cc1ccc(-c2ccc(Cl)cc2C(F)(F)F)s1 | 58 to 60 °C
* CC(C)NC(=O)C1CCCC(N)C1 (stereo not drawn) | 126 to 128 °C
* CCC1CCCCC1NC(=O)c1ccnc(F)c1 (stereo not drawn) | 69 to 71 °C

Consider the molecule "O=C(O)CN1CCC(CO)CC1" and give its measured melting point.
202 to 204 °C

----------
Listed here: items and their measured melting point.

Below, 5 compounds whose answers are already recorded.
- Oc1ccc(OCc2cccnc2)cc1: 157 to 159 °C
- O=c1ccn2ncc(Br)c2[nH]1: 349 to 351 °C
- Fc1ccccc1-c1c[nH]c(C2CCCN2)n1 (stereo not given): 111 to 113 °C
- CCOC(=O)/C(C#N)=C/Nc1ccccc1OCC: 141 to 143 °C
- Clc1ccc2nnc(-c3ccccc3)n2n1: 201 to 203 °C

Entry "Clc1cc(-n2cccn2)ccn1" : reported melting point = ?
111 to 113 °C

----------
parameter: melting point

A selection of reference data follows.
• Cc1nc(CCl)nc2ccccc12 = 60 to 62 °C
• CCOC(=O)c1ccc(S(=O)(=O)N2CCC(C(=O)O)CC2)cc1 = 219 to 221 °C
• O=C(O)CCCNC(=O)NC1CCCCC1 = 153 to 155 °C
• O=c1[nH]cnc2cc(N3CCOCC3)c([N+](=O)[O-])cc12 = 309 to 311 °C
• O=C(NCC1CCCNC1)c1ccccc1 (stereo unspecified) = 82 to 84 °C
• O=Cc1c[nH]c(-c2ccccc2)n1 = 159 to 161 °C
• CCCc1c(C(=O)O)nnn1-c1cccc(Cl)c1 = 129 to 131 °C
• O=C(CO)Nc1ccc(Oc2ccccc2)cc1 = 149 to 151 °C

# input for lookup
So what's the measured melting point for this one? CC(C)Cn1c(=O)[nH]c(=O)c2c(S)nc(CC3CC4CCC3C4)nc21 (stereo unspecified)
311 to 313 °C

----------
parameter: melting point

As a guide, the following entries are already answered.
* CC(O)c1ccccc1-c1ccccc1 (stereo not given) | 104 to 106 °C
* CC(C)(C)OC(=O)NC1CCN(CC(=O)O)CC1 | 204 to 206 °C
* CSc1ccccc1CC(=O)O | 115 to 117 °C
* Cc1c(C(=O)O)cnn1-c1ccccn1 | 174 to 176 °C
* CC(C)(C)OC(=O)N1CCN2C(=O)NCC2C1 (stereo not given) | 218 to 220 °C
* CCN(CC)S(=O)(=O)c1cccc(NC(=O)CCl)c1 | 82 to 84 °C

In the following, a different compound is considered.
Given the compound "COc1cc(C(C)=O)cc(O)c1OC" , what is its reported melting point?
59 to 61 °C

----------
Examples of molecules with documented melting point follow.

Requested field: melting point. Item: NC(CC(=O)O)C1CC1 (centres undefined)
209 to 211 °C

Please give the measured melting point for this molecule: "Cc1ccc(C#N)c(OC2CCCC2)c1"
66 to 68 °C

Consider the molecule "Nc1cc(C(F)(F)F)ccc1-n1cccn1" and give its measured melting point.
40 to 48 °C

----------
parameter: melting point

Answered cases to consult:
• Cc1ccc2nc(-c3ccc(N=C=S)cc3)sc2c1 = 243 to 245 °C
• OCc1nnc(S)n1C1CC1 = 154 to 156 °C
• CCOC(=O)c1cc(N)cc(S(C)(=O)=O)c1 = 190 to 192 °C
• Cc1cc2ncc3c(n2n1)C(=O)OCC3 = 200 to 202 °C

Item under review: "Cc1ccc(CN)cn1" . Reported melting point?
59 to 61 °C

Look up melting point: "Cc1nc(Cl)ccc1CC(=O)O"
134 to 136 °C

For the compound "Cc1ccc(S(N)(=O)=O)cc1NC(=O)CCl" , what melting point is on record?
179 to 181 °C

# lookup: melting point of "CC(C)(C)c1nc(C#N)c(NN)o1"
164 to 166 °C

Please look up its melting point: "CC(C)Oc1ccc(C(=O)NCC(=O)O)cc1"
154 to 156 °C

Record request: melting point value, item "O=[N+]([O-])c1ccccc1NCCO"
76 to 78 °C

----------
Collected melting point values appear next to each entry.

Sample records with melting point:
• COc1cc(Br)c(S(=O)(=O)Cl)cc1Cl = 89 to 91 °C
• O=C1COc2ccc(C(=O)/C=C/c3ccccc3)cc2N1 = 228 to 230 °C
• O=C(O)c1cnn2c1NCCC2 = 141 to 143 °C
• Nc1cccc(N2C(=O)c3ccccc3C2=O)c1 = 189 to 191 °C

Give the measured melting point of "O=C(O)c1ccc(Cl)cc1I" .
157 to 159 °C

----------
parameter: melting point

The cases that follow already have their melting point on record.
• O=C(O)Cc1cc(=O)[nH]c(=O)[nH]1 = 324 to 326 °C
• BrC1=CC2C(C3C=CC2(Br)C32OCCO2)C12OCCO2 (centres undefined) = 178 to 180 °C
• Cc1cn2cc(Br)cc(C)c2n1 = 109 to 111 °C

Please give the measured melting point for this molecule: CC(N)c1ccc(NC(=O)c2ccc(F)cc2)cc1 (centres undefined)
110 to 112 °C

What value of measured melting point is listed for "CC(=O)c1nnn(-c2ccc(F)cc2)c1C" ?
77 to 79 °C

Tell me the measured melting point of "Cc1ccc(-c2ncco2)cc1N" , please.
89 to 91 °C

Report melting point for "Cc1cc(S)n2c(nc3ccccc32)c1C#N" please.
198 to 200 °C

Return reported melting point; argument: "Nc1nc(-c2ccccc2OC(F)F)cs1"
73 to 75 °C

Field request: melting point | item: "Cc1coc(-c2cccc(N)c2)n1"
88 to 90 °C

State the recorded melting point for this entry: "Nc1cc(Cl)ccc1N1CCC(CO)CC1"
144 to 146 °C

// returns reported melting point for input "Cc1nn(C)c2[nH]nc(N)c12"
135 to 137 °C

Which melting point value belongs to "O=C(O)c1cc(CCc2ccccc2)ccc1O" ?
156 to 158 °C

Any idea what its melting point is? The molecule is "CC(C)(C#N)N1CCN(C(C)(C)C#N)CC1"
182 to 184 °C

Which melting point value is on record for "[N-]=[N+]=Nc1ccc(Br)cc1Cl" ?
60 to 62 °C

Look at this molecule and give its reported melting point. "Cc1ccccc1-n1c(S)nc(O)cc1=O"
206 to 208 °C

What measured melting point goes with "O=C(O)c1ccccc1CSc1nnc[nH]1" ?
177 to 179 °C

For "O=C(O)c1cc(-c2ccc(F)cc2)nc2onc(C3CC3)c12" , what is its reported melting point?
229 to 231 °C

// melting point lookup, key: "Cn1cc(C(=O)NC2CCNCC2)cn1"
204 to 206 °C

What does the record list as melting point for "Cc1oncc1C(=O)Nc1ccc(CC(=O)O)cc1" ?
208 to 210 °C

Fill in the blank: the reported melting point of "O=C(O)c1ccn(-c2ccccc2F)n1" is ____.
122 to 124 °C

Recorded melting point for "Cc1[nH]c2ccccc2c1-c1csc(N)n1" , please?
168 to 170 °C

I am curious: what melting point value has been reported for "Nc1nn(C(=O)c2ccccc2Br)c2ccccc12" ?
224 to 226 °C

Which measured melting point value corresponds to "Cc1cccnc1CC(=O)C(F)(F)F" ?
121 to 123 °C

# get_value(readout='melting point', item= "COc1ccc(C(=O)O)nc1Br" )
232 to 234 °C

# get_value(readout='melting point', item= "Nc1cccc(C(=O)Nc2ccc(Br)cn2)c1" )
153 to 155 °C

May I ask what melting point has been recorded for "Cc1ncsc1-c1nc(CCl)no1" ?
82 to 84 °C

----------
Listed here: items and their measured melting point.

Worked set:
* COc1ccc(C(=O)Nc2cccc(C=O)c2)cc1 | 128 to 130 °C
* Nc1ccccc1C(=O)NCC(F)(F)F | 125 to 130 °C
* COCCn1nnc(C(=O)O)c1C(F)(F)F | 55 to 57 °C

Sample "CN(C(=O)c1ccccc1O)C1CCCC1" — what was its melting point?
65 to 74 °C

Would you kindly share the measured melting point for "NC(=O)C1CCC1" ?
151 to 153 °C

Reported melting point, molecule "O=C(O)CCNC(=O)c1cccs1" : ____
220 to 222 °C

Field request: melting point | item: "O=C(O)c1ccc(COc2ccc(Br)cc2)o1"
194 to 196 °C

What value of measured melting point is listed for "O=C(O)c1ncncc1Cl" ?
153 to 155 °C

Requested field: melting point. Item: "COC(=O)C(=O)CC(=O)c1ccc(OC)cc1"
104 to 106 °C

Fill in: melting point of "COc1ccc(C(=O)O)cc1C(C)C" is ___
164 to 166 °C

Data request, read-out melting point, for CCOc1ccc2c(c1)CC(C(=O)O)CO2 (stereo unspecified)
132 to 134 °C

Field request: melting point | item: "O=C(O)CCCc1ccc(O)cc1"
106 to 108 °C

Endpoint output: melting point of "CCNc1nc(NCC)n2c(S)nnc2n1" . Value?
98 to 100 °C

Recorded melting point for CC(C)CN1CC(C(=O)O)CC1=O (stereo unspecified) , please?
83 to 85 °C

Can you share its melting point? I mean this molecule: "CCCCNc1ccc(S(N)(=O)=O)cc1N"
130 to 132 °C

Request the reported melting point associated with CC1(c2ccc(C(N)=O)cc2)NC(=O)NC1=O (stereo unspecified)
163 to 165 °C

So what does the record say about melting point for "Cc1sc2nc(-c3cccs3)nc(Cl)c2c1C" ?
130 to 137 °C

I am curious: what melting point value has been reported for "COC(=O)CNc1ccncc1[N+](=O)[O-]" ?
104 to 106 °C
